- Test system: OVCAR-3 ovarian
- measurement-description: NCI-60 one-dose screen, 48 h (100 = growth as untreated, 0 = no growth, -100 = all killed)
- condition-parameters: 10 µM unless noted
About 83,000 compounds went through this panel and 20% of them were active in at least one assay; those are over-represented in the sample as a whole.
growth strictly under 10% means criterion met; at 10% or over means criterion not met.

INSERT INTO measurements (compound, discrete_label) VALUES
  ('Cc1ccc(S(=O)(=O)F)cc1C(=O)O', 'criterion not met'),
  ('C[C@]12C[C@@H](CO)[C@H](O)C[C@@H]1CC[C@@H]1[C@@H]2CC[C@]2(C)[C@@H](O)CC[C@@H]12', 'criterion not met'),
  ('CCCCN1CCCC[C@@H]1C(=O)N[C@H](C(=O)N(C)[C@H](CCc1nc(C(=O)N[C@@H](Cc2ccccc2)C[C@H](C)C(=O)OC)cs1)C(C)C)[C@@H](C)CC', 'criterion not met'),
  ('CC[C@H](NC(=O)[C@H]1CCCCN1C)C(=O)N(C)[C@H](C[C@@H](OC(C)=O)c1nc(C(=O)N[C@@H](Cc2ccccc2)C[C@H](C)C(=O)O)cs1)C(C)C', 'criterion met'),
  ('COc1cc(NCCCN=C(N)N)c2ncccc2c1', 'criterion met'),
  ('COc1ccc(O)c(CNC(=O)CN2CCCC2=O)c1', 'criterion not met'),
  ('[Cl][Hg][c]1cc[c]([Hg][Cl])o1', 'criterion met'),
  ('CC1=C(CNO)C2=C(C)C3(CC3)[C@@](C)(O)C(=O)C2=C1', 'criterion met'),
  ('COc1ccc(/C=C\c2cc(OC)c(OC)c(OC)c2)cc1OCC(=O)Nc1nc2ccc(C(F)(F)F)cc2s1', 'criterion met'),
  ('Oc1ccc2c3c1OC1[C@@H](O)CC[C@@]4(O)[C@@H](C2)N(CC2CCC2)CC[C@]314 (some centres undefined)', 'criterion not met');

input: Is it true that growth reported for "CCNc1nc(Cl)nc(NCC)n1" is less than 10%?
output: criterion not met

input: Check "COP(=S)(N1CC1)N1CC1" too.
output: criterion not met

input: Check "O=C([O][Hg][c]1ccccc1)c1ccccc1" too.
output: criterion met

input: Check "CC[C@H](C)[C@H](NC(=O)C12CC(NC(C)=O)(C1)C2)C(=O)N(C)[C@H](C[C@@H](OC(C)=O)c1nc(C(=O)N[C@@H](Cc2ccccc2)C[C@H](C)C(=O)OC)cs1)C(C)C" too.
output: criterion met

input: Check "O=[N+]([O-])c1cc(I)cc([N+](=O)[O-])c1" too.
output: criterion not met

input: Check "CC[C@]12C=CCN3CC[C@@]4(c5ccc(OC)cc5N(C)[C@H]4[C@@](O)(C(=O)OC)[C@@H]1OC(=O)CCCC[P+](c1ccccc1)(c1ccccc1)c1ccccc1)[C@@H]32" too.
output: criterion met

input: Check "CCCCCCCOC(C(=O)OCCN(CC)CC)(c1ccccc1)c1ccccc1" too.
output: criterion not met

input: Check "CCCC[C@H](NC(=O)[C@H]1CCCCN1C)C(=O)N(C)[C@H](C[C@@H](OC(C)=O)c1nc(C(=O)N[C@@H](Cc2ccccc2)C[C@H](C)C(=O)OCC)cs1)C(C)C" too.
output: criterion met

input: Check CC1(C)CN1P(=O)(N1CC1(C)C)N1CC1(C)C (centres undefined) too.
output: criterion not met

Values were extracted from PubChem BioAssay (NCI).
